protocol.details: UV absorbance spectrum in solution (λmax, λcrit, extinction coefficients)
Type: physicochemical
condition.summary: mass extinction coefficient
property.measured: E (1%, 1 cm)

a. COC(=O)c1ccc2c(c1)CCN2C=C(C(=O)C(C)(C)C)c1ccc(C)cc1 [Compound 295]
b. O=C(/C(=C\N(Cc1ccccc1)c1ccccc1)c1ccccc1)C(F)(F)F [Compound 162]
c. CN(C)S(=O)(=O)c1ccc(C(=O)/C(=C/N(c2ccccc2)c2ccccc2)c2ccccc2)cc1 [Compound 265]
Exam item: Order the records so the highest E (1%, 1 cm) appears first and the lowest last. Your reply should list the labels following the order given in the request.
Marked response: a, b, c

====

protocol.details: % transmission spectrum of 0.1% solution (breakthrough, steepness)
Assay type: physicochemical
condition.summary: value in nm where transmittance increases beyond 1%; 0.1% solution
property.measured: Breakthrough (1% T at 0.1%) (nm)

| compound.string | property.measured | number |
| --- | --- | --- |
| CCN(/C=C(/C(=O)c1ccc(C)cc1)c1ccccc1)c1ccccc1 | Breakthrough (1% T at 0.1%) | 394 |
| COC(=O)c1ccc(N(/C=C(\C(=O)C(F)(F)F)c2ccccc2)c2ccccc2)cc1 | Breakthrough (1% T at 0.1%) | 403 |
| CCCN(/C=C(/C(=O)C(F)(F)F)c1ccccc1)c1ccccc1 | Breakthrough (1% T at 0.1%) | 380 |
| CCOC(=O)C(=O)/C(=C/N(c1ccccc1)c1ccccc1)c1ccccc1 | Breakthrough (1% T at 0.1%) | 400 |
| O=C(/C(=C/N1CCc2ccccc21)c1ccccc1)c1ccccc1 | Breakthrough (1% T at 0.1%) | 420 |
| CCN(/C=C(/C(=O)c1c(C)cc(C)cc1C)c1ccccc1)c1ccccc1 | Breakthrough (1% T at 0.1%) | 364 |
| CCOC(=O)C(=O)/C(=C/N(CC)CC)c1ccccc1 | Breakthrough (1% T at 0.1%) | 363 |
| CCN(/C=C(/C(=O)C(=O)N(C)C)c1ccccc1)CC | Breakthrough (1% T at 0.1%) | 355 |
| Cc1ccc(C(=O)/C(=C/N(c2ccccc2)c2ccccc2)c2ccccc2)cc1 | Breakthrough (1% T at 0.1%) | 411 |

====

protocol.details: UV absorbance spectrum in solution (λmax, λcrit, extinction coefficients)
Type: physicochemical
From the text: […]
property.measured: λmax (nm)

| compound | λmax / nm |
| --- | --- |
| CCN(/C=C(\C(=O)C(F)(F)F)c1ccccc1)CCCCCCN(/C=C(\C(=O)C(F)(F)F)c1ccccc1)CC | 318 |
| CC1(C)CN(/C=C(/C(=O)c2ccccc2)c2ccccc2)c2ccccc21 | 357 |
| CCN(/C=C(\C(C)=O)c1ccccc1)CC | 294 |
| COC(=O)c1ccc2c(c1)CCN2C=C(C(=O)C(C)(C)C)c1ccc(C(C)(C)C)cc1 | 368 |
| CCN(/C=C(/C(=O)c1ccc(C)cc1)c1ccccc1)c1ccccc1 | 336 |
| COc1ccccc1C(=O)/C(=C/N1CCc2ccccc21)c1ccccc1 | 358 |
| CN(/C=C(\C(=O)C(F)(F)F)c1ccccc1)c1ccccc1 | 332 |
| CCN(/C=C(\C(=O)C(F)(F)F)c1ccccc1)CCOC(=O)c1ccc2c(c1)CCN2/C=C(\C(=O)C(F)(F)F)c1ccccc1 | 374 |
| O=C(/C(=C/N1CCc2ccccc21)c1ccccc1)c1ccccc1 | 361 |
| CCN(/C=C(\C(=O)C(F)(F)F)c1ccccc1)c1ccccc1C | 320 |
| COC(=O)c1ccc2c(c1)CCN2/C=C(/C(=O)C(=O)OC(C)(C)C(=O)OC)c1ccccc1 | 368 |
| CN(C)C(=O)C(=O)/C(=C\N1CCc2ccccc21)c1ccccc1 | 359 |
| CCN(/C=C(\C(=O)C(F)(F)C(F)(F)C(F)(F)F)c1ccccc1)c1ccccc1 | 332 |
| O=C(/C(=C\N1CCCN(/C=C(/C(=O)C(F)(F)F)c2ccccc2)CC1)c1ccccc1)C(F)(F)F | 326 |
| CC(C)(C)OC(=O)C(=O)/C(=C/N1CCc2ccccc21)c1ccccc1 | 366 |
| O=C(OCCCOC(=O)c1ccc2c(c1)CCN2/C=C(\C(=O)C(F)(F)F)c1ccccc1)c1ccc2c(c1)CCN2/C=C(\C(=O)C(F)(F)F)c1ccccc1 | 374 |
| COC(=O)c1ccc2c(c1)CCN2/C=C(/C(=O)C(C)(C)C)c1ccccc1 | 367 |
| O=C(/C(=C\N1CCCc2ccccc21)c1ccccc1)C(F)(F)F | 354 |
| O=C(/C(=C/N(c1ccccc1)c1ccccc1)c1ccccc1)c1ccccc1 | 352 |
| CCN(/C=C(\C(=O)C(F)(F)C(F)(F)C(F)(F)C(=O)/C(=C\N(CC)c1ccccc1)c1ccccc1)c1ccccc1)c1ccccc1 | 330 |
| COC(=O)c1ccc2c(c1)CCN2/C=C(/C(=O)c1ccccc1O[Si](C)(C)C(C)(C)C)c1ccccc1 | 369 |
| Cc1ccccc1C(=O)/C(=C/N1CCc2ccccc21)c1ccccc1 | 355 |
| COC(=O)c1ccc2c(c1)CCN2/C=C(/C(=O)c1ccc(C)cc1)c1ccccc1 | 371 |
| CC(C)(C)OC(=O)C(=O)/C(=C/N(c1ccccc1)c1ccccc1)c1ccccc1 | 349 |
| CC1(C)CN(/C=C(\C(=O)C(F)(F)F)c2ccccc2)c2ccccc21 | 366 |
| CCOC(=O)C(=O)/C(=C/N(c1ccccc1)c1ccccc1)c1ccccc1 | 348 |
| CCN(/C=C(/C(=O)c1ccccc1OC)c1ccccc1)c1ccccc1 | 327 |
| CCN(/C=C(/C(=O)c1ccccc1)c1ccccc1)CC | 312 |
| CCCCN(/C=C(/C(=O)C(F)(F)F)c1ccccc1)c1ccccc1 | 330 |
| O=C(/C(=C\N1CCc2ccccc21)c1ccccc1)C(F)(F)F | 367 |
| CCCCC(CC)COc1ccc(N(/C=C(\C(=O)C(F)(F)F)c2ccccc2)CC)cc1 (stereo not drawn) | 332 |
| CCN(/C=C(/C(=O)c1ccccc1)c1ccccc1)c1ccccc1 | 333 |
| COC(=O)c1ccc2c(c1)CCN2/C=C(/C(=O)c1cccc(C)c1)c1ccccc1 | 370 |

The values you see were collected from patent US11512042B2.
